Provide the recorded melting point for the entries that follow.

The recorded melting point for `CN(c1ccc(N/C(=C2\C(=O)Nc3ccccc32)c2ccccc2)cc1)S(C)(=O)=O` is 269 °C

The recorded melting point for `CN(C(=O)CN1CCNCC1)c1ccc(N/C(=C2\C(=O)Nc3ccc([N+](=O)[O-])cc32)c2ccccc2)cc1.Cl.Cl` is 246 to 248 °C

The recorded melting point for `CC(=O)NCc1cccc(N/C(=C2\C(=O)Nc3ccc([N+](=O)[O-])cc32)c2ccccc2)c1` is 238 °C

The recorded melting point for `CC(C)C(=O)N(CCN(C)C)c1ccc(N/C(=C2\C(=O)Nc3ccc([N+](=O)[O-])cc32)c2ccccc2)cc1` is 296 to 298 °C

The recorded melting point for `CCOC(=O)CN(c1ccc(N/C(=C2\C(=O)Nc3ccc([N+](=O)[O-])cc32)c2ccccc2)cc1)S(C)(=O)=O` is 236 to 238 °C

The recorded melting point for `CC(C)C(=O)N(CCN(C)C)c1ccc(N/C(=C2\C(=O)Nc3ccccc32)c2ccccc2)cc1` is 280 to 282 °C

The recorded melting point for `CN(C)Cc1ccc(N/C(=C2\C(=O)Nc3ccccc32)c2ccc([N+](=O)[O-])cc2)cc1` is 235 °C

The recorded melting point for `Cc1cccc(/C(Nc2ccc(CN(C)C)cc2)=C2/C(=O)Nc3ccccc32)c1` is 224 to 226 °C

The recorded melting point for `O=C1Nc2ccccc2/C1=C(/Nc1ccc(C(=O)N2CCCC2)cc1)c1ccccc1` is 127 to 129 °C

The recorded melting point for `CCN(CCO)CCc1ccc(N/C(=C2\C(=O)Nc3ccc([N+](=O)[O-])cc32)c2ccccc2)cc1` is 165 to 166 °C

The recorded melting point for `CC(C)(C)OC(=O)NCC(=O)NCc1cccc(N/C(=C2\C(=O)Nc3ccc([N+](=O)[O-])cc32)c2ccccc2)c1` is 228 °C

The recorded melting point for `Cc1ccc(/C(Nc2ccc(CN(C)C)cc2)=C2/C(=O)Nc3ccccc32)cc1` is 208 to 209 °C

The recorded melting point for `CCC(=O)N(CC(=O)O)c1ccc(N/C(=C2\C(=O)Nc3ccccc32)c2ccccc2)cc1` is 270 °C (dec.)

The recorded melting point for `CNC(=O)CN(C(=O)c1ccccc1)c1ccc(N/C(=C2\C(=O)Nc3ccccc32)c2ccccc2)cc1` is 260 to 262 °C

The recorded melting point for `CS(=O)(=O)Nc1cccc(N/C(=C2\C(=O)Nc3ccccc32)c2ccccc2)c1` is 275 °C

The recorded melting point for `NCc1cccc(N/C(=C2\C(=O)Nc3ccccc32)c2ccccc2)c1` is 175 to 185 °C

The recorded melting point for `CC(C)(C)OC(=O)Nc1ccc(N/C(=C2\C(=O)Nc3ccccc32)c2ccccc2)cc1` is 244 to 246 °C

The recorded melting point for `CN(C)CCCN(C)S(=O)(=O)c1ccc(N/C(=C2\C(=O)Nc3ccc([N+](=O)[O-])cc32)c2ccccc2)cc1` is 269 to 270 °C (dec.)

The recorded melting point for `CCS(=O)(=O)N(CC(N)=O)c1ccc(N/C(=C2\C(=O)Nc3ccccc32)c2ccccc2)cc1` is 259 °C

The recorded melting point for `CN(C)CCNC(=O)CN(c1ccc(N/C(=C2\C(=O)Nc3ccccc32)c2ccccc2)cc1)S(C)(=O)=O` is 214 to 216 °C
